From: paper PMC5785774

Target: PKCδ-C1b (Mus musculus, UniProt P28867)
Sequence (P28867 231-281 limits assumed): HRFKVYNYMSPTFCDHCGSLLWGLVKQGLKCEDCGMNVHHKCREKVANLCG
REPORTED ENDPOINT: Kd

INSERT INTO results (compound, target_of_assay, reported_endpoint, result) VALUES
  ('CCCC(=O)O[C@@H]1[C@@H](C)[C@@]2(O)[C@@H](C=C(CO)C[C@]3(O)C(=O)C(C)=C[C@@H]23)[C@@H]2C(C)(C)[C@]12OC(=O)CCC [phorbol 12,13-dibutyrate]', 'PKCδ-C1b (Mus musculus, UniProt P28867)', 'Kd', '1.5 nM');
